# assay explanation: Metabolic stability in human liver microsomes incubated for 10 mins prior to NADPH addition measured after 60 mins by LC/MS/MS analysis
# Assay type: ADME
# condition context: read-out: Stability
assay readout: remaining at 1 h (%)

Some compounds with recorded remaining at 1 h:
Cn1cc(-c2cccc(Oc3nccc(-c4cncnc4)n3)c2)c2nc3ccccc3cc21 ... 39.8
Cn1cc(-c2ccc(Oc3nccnc3-c3ccncc3)cc2)c2ncccc21 ... 77.4
Cn1cc(-c2ccc(Oc3nccnc3-c3ccncc3)cc2)c2ncc(Cl)cc21 ... 77
Cn1cc(-c2ccc(Oc3ncccc3-c3ccncc3)cc2)c2ncccc21 ... 59.6
Cc1cnc2c(-c3ccc(Oc4ncccc4-c4ccncc4)cc3)cn(C)c2c1 ... 62.5

(a) Cn1cc(C2CCC(Oc3nccnc3-c3cncnc3)CC2)c2ncccc21 (configuration not stated)
(b) Cn1cc(-c2ccc(Oc3ncccc3-c3ccncc3)cc2)c2ncc(Cl)cc21
(c) Cn1cc(-c2cccc(Oc3nccc(N4CCOCC4)n3)c2)c2nc3ccccc3cc21
Task item: # rank_down: sort by remaining at 1 h, max first Present the labels in the sequence the task asks for.
Reply: b, a, c

* * *

# measurement target: cAMP and cAMP-inhibited cGMP 3',5'-cyclic phosphodiesterase 10A (Mus musculus)
# Sequence (Q8CA95 whole entry): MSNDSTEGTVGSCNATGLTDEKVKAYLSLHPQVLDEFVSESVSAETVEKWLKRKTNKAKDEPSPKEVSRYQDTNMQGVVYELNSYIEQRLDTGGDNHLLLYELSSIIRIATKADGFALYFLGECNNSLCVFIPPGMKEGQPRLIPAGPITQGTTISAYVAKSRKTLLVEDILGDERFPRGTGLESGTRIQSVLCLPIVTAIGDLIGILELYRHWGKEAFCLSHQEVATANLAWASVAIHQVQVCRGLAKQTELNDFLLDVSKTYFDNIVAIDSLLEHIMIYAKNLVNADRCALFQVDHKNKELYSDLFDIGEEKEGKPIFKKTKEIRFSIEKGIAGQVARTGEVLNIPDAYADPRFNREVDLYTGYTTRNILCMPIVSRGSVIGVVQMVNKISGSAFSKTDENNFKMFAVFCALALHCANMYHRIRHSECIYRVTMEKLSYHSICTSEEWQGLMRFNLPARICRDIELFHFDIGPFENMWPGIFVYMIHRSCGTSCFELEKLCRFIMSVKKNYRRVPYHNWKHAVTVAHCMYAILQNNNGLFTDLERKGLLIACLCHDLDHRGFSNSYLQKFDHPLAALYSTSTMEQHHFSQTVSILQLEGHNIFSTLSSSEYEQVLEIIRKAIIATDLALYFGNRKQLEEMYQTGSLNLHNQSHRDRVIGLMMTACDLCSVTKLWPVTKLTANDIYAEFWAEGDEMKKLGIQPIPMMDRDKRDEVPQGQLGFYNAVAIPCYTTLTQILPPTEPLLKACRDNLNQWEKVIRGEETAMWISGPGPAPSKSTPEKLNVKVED
# assay explanation: Inhibition of mouse recombinant GST-tagged PDE10A using [3H]-cAMP as substrate after 30 mins by scintillation proximity assay
assay readout: IC50 (nM)

A selection of reference data follows.
Cn1cc(-c2ccc(Oc3nccnc3-c3ccncc3)cc2)c2ncccc21 ... 11.7
Cn1cc(-c2ccc(Oc3nccnc3-c3ccncc3)cc2)c2nc3ccccc3cc21 ... 22.6
Cc1cnc2c(-c3ccc(Oc4ncccc4-c4ccncc4)cc3)cn(C)c2c1 ... 1.2

(a) Cn1cc(-c2ccc(Oc3ncccc3-c3ccncc3)cc2)c2ncc(Cl)cc21
(b) Cn1cc(-c2ccc(Oc3ncccc3-c3ccncc3)cc2)c2ncccc21
Task item: Return label of the item with the larger IC50. Candidates: a , b . // output: label of the selected item
Reply: a
(a: 6.7 nM, b: 4.1 nM)

* * *

# assay explanation: Half life in Sprague-Dawley rat at 10 mg/kg, po
# Type: ADME, organism-based
# Set-up: dose 10 mg/kg, route oral
# condition context: in vivo
assay readout: half-life (h)
Answer with a number only, understood to be in h.

Reported half-life of Cn1cc(-c2ccc(Oc3nccnc3-c3ccncc3)cc2)c2ncccc21 : 4.4

* * *

# assay explanation: Half life in Swiss albino mouse at 10 mg/kg, po
# Format: ADME, organism-based
# Parameters: dose 10 mg/kg, route oral
# condition context: in vivo
assay readout: half-life (h)
Provide only the numeric value, understood in h.

// half-life value for Cn1cc(-c2ccc(Oc3nccnc3-c3ccncc3)cc2)c2ncccc21 : 10.4

* * *

# assay explanation: Metabolic stability in Beagle dog liver microsomes incubated for 10 mins prior to NADPH addition measured after 60 mins by LC/MS/MS analysis
# Type: ADME, Canis lupus familiaris
# condition context: read-out: Stability
assay readout: remaining at 1 h (%)

Cn1cc(-c2ccc(Oc3nccnc3-c3ccncc3)cc2)c2ncccc21 ... 65.8
Cn1cc(-c2cccc(Oc3nccc(-c4cn[nH]c4)n3)c2)c2nc3ccccc3cc21 ... 52
Cn1cc(-c2ccc(Oc3nccnc3-c3ccncc3)cc2)c2ncc(Cl)cc21 ... 55.3

(1) Cn1cc(-c2ccc(Oc3ncccc3-c3ccncc3)cc2)c2ncc(Cl)cc21
(2) Cn1cc(-c2cccc(Oc3nccc(N4CCOCC4)n3)c2)c2nc3ccccc3cc21
Task item: Please state the entry with greater remaining at 1 h among 1 and 2 . Use the label to indicate which entry you chose.
Reply: 1
(1: 54.7%, 2: 1.3%)

(a) Cn1cc(C2=CCC(Oc3nccnc3-c3cncnc3)CC2)c2ncccc21 (configuration not stated)
(b) Cn1cc(C2CCC(Oc3nccnc3-c3cncnc3)CC2)c2ncccc21 (configuration not stated)
Task item: Between these two entries, a and b , state which has the higher remaining at 1 h. Which one? Tell me its label.
Reply: b

* * *

# assay explanation: Metabolic stability in Beagle dog liver microsomes incubated for 10 mins prior to NADPH addition measured after 60 mins by LC/MS/MS analysis
# Type: ADME, Canis lupus familiaris
# condition context: read-out: Stability
assay readout: remaining at 1 h (%)

The following molecules have reported results that may help.
Cc1cnc2c(-c3ccc(Oc4ncccc4-c4ccncc4)cc3)cn(C)c2c1 ... 32.3
Cn1cc(-c2ccc(Oc3nccnc3-c3ccncc3)cc2)c2nc3ccccc3cc21 ... 92
Cn1cc(-c2ccc(Oc3ncccc3-c3ccncc3)cc2)c2ncccc21 ... 39.7

(I) Cn1cc(-c2ccc(Oc3nccnc3-c3cncnc3)cc2)c2nc3ccccc3cc21
(II) Cn1cc(-c2cccc(Oc3nccc(-c4cncnc4)n3)c2)c2nc3ccccc3cc21
Task item: Response body: label of entry with the larger remaining at 1 h; valid values I , II . Record your answer as the label of the chosen record.
Reply: I
(I: 77%, II: 40.3%)

* * *

# measurement target: UniProt Q14432
# Sequence (Q14432 whole entry): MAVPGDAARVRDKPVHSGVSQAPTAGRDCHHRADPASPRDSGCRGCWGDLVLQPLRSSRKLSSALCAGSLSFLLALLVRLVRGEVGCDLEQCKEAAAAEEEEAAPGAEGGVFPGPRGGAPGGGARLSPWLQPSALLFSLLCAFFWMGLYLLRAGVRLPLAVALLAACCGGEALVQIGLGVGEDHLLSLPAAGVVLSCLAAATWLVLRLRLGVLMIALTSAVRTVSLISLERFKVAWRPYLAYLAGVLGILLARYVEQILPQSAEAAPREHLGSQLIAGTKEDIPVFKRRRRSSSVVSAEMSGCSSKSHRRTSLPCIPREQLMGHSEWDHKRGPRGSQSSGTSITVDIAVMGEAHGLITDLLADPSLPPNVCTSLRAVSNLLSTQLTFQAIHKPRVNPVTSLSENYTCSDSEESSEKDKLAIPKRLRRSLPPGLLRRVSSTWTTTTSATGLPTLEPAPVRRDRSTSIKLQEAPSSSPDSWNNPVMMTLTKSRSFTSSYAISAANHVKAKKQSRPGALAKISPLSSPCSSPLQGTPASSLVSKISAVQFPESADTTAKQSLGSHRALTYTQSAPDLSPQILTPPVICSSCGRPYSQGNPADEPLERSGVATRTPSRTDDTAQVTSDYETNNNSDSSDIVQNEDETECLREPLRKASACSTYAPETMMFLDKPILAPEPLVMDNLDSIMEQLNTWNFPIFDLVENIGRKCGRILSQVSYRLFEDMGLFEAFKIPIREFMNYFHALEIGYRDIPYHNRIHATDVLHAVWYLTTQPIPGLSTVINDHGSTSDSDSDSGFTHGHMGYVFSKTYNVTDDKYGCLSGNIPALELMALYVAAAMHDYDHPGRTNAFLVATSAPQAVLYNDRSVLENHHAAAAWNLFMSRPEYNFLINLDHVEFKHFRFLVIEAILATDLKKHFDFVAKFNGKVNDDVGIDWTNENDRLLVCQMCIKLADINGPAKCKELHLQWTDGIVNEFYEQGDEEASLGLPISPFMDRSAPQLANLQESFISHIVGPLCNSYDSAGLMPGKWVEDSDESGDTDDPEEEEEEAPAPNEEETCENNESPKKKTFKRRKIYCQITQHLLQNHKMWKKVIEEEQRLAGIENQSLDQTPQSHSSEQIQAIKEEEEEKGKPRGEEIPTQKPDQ
# assay explanation: Inhibition of human recombinant PDE3A using cAMP as substrate at 10 uM after 30 mins by HTRF method
assay readout: inhibition (%)

A selection of reference data follows.
Cn1cc(-c2cccc(Oc3nccc(N4CCOCC4)n3)c2)c2nc3ccccc3cc21 ... 21.5
Cn1cc(-c2ccc(Oc3nccnc3-c3ccncc3)cc2)c2ncccc21 ... 6.3
Cn1cc(-c2ccc(Oc3nccnc3-c3cncnc3)cc2)c2nc3ccccc3cc21 ... 9.4
Cn1cc(-c2ccc(Oc3nccnc3-c3ccncc3)cc2)c2ncc(Cl)cc21 ... 9.8

(P) Cn1cc(-c2cccc(Oc3nccc(-c4cncnc4)n3)c2)c2nc3ccccc3cc21
(Q) Cn1cc(-c2ccc(Oc3ncccc3-c3ccncc3)cc2)c2ncccc21
(R) Cn1cc(-c2ccc(Oc3nccnc3-c3ccncc3)cc2)c2nc3ccccc3cc21
(S) Cn1cc(-c2cccc(Oc3nccc(-c4cn[nH]c4)n3)c2)c2nc3ccccc3cc21
(T) Cn1cc(-c2ccc(Oc3ncccc3-c3ccncc3)cc2)c2ncc(Cl)cc21
Task item: Rank the 5 compounds: largest inhibition first, smallest last. Would you mind listing the labels in the order requested?
Reply: S, Q, P, R, T

* * *

# measurement target: cAMP and cAMP-inhibited cGMP 3',5'-cyclic phosphodiesterase 10A (Homo sapiens, UniProt Q9Y233)
# Sequence (Q9Y233 whole entry): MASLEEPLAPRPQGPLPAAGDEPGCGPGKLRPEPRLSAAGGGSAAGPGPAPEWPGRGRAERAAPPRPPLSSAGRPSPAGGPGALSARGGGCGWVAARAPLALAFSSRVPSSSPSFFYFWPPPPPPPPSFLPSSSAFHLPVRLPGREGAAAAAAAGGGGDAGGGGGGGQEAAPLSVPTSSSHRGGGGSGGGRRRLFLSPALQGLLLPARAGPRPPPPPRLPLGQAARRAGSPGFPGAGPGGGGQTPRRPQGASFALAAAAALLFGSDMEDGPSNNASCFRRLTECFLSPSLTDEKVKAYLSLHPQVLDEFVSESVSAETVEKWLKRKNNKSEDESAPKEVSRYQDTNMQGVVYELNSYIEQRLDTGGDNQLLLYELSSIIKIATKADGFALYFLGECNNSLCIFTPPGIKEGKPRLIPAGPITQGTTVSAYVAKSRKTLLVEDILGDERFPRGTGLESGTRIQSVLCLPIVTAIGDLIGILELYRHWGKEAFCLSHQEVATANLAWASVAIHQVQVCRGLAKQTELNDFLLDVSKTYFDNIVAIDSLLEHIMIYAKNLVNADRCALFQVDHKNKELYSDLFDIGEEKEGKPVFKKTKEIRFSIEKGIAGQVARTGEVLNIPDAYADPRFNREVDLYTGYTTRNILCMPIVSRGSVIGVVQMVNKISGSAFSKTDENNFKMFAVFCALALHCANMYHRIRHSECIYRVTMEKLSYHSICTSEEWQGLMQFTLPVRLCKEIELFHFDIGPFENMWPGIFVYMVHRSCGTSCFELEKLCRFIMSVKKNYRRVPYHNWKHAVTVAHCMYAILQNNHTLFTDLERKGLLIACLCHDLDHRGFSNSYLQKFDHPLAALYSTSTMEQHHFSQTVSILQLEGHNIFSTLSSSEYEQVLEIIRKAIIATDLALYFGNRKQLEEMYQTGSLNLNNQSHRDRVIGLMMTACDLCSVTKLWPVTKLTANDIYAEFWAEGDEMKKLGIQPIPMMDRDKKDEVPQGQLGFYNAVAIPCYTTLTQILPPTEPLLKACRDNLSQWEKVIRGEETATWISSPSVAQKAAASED
# assay explanation: Inhibition of human recombinant GST-tagged PDE10A using [3H]-cAMP as substrate after 30 mins by scintillation proximity assay
assay readout: IC50 (nM)

// below: answered compounds
Cn1cc(C2=CCC(Oc3nccnc3-c3cncnc3)CC2)c2ncccc21 (stereo not drawn) ... 136
Cn1cc(-c2ccc(Oc3ncccc3-c3ccncc3)cc2)c2ncccc21 ... 1.3
Cn1cc(-c2ccc(Oc3nccnc3-c3cncnc3)cc2)c2nc3ccccc3cc21 ... 19.1
Cn1cc(-c2ccc(Oc3nccnc3-c3ccncc3)cc2)c2ncccc21 ... 6.3
COc1ccc(-c2ccnc(Oc3cccc(-c4cn(C)c5cc6ccccc6nc45)c3)n2)cc1 ... 103
COc1ccc(-c2nccnc2Oc2ccc(-c3cn(C)c4cc5ccccc5nc34)cc2)cc1 ... 153

(P) Cn1cc(-c2ccc(Oc3nccnc3-c3ccc(F)cc3)cc2)c2nc3ccccc3cc21
(Q) Cn1cc(-c2cccc(Oc3nccc(N4CCOCC4)n3)c2)c2nc3ccccc3cc21
(R) Cn1cc(-c2cccc(Oc3nccc(-c4ccc(F)cc4)n3)c2)c2nc3ccccc3cc21
(S) Cn1cc(-c2ccc(Oc3nccnc3-c3ccncc3)cc2)c2nc3ccccc3cc21
Task item: Please put the entries in order of rising IC50. Sort the labels as requested; that list is your answer.
Reply: S, Q, R, P
(S: 8.54 nM, Q: 29.2 nM, R: 116 nM, P: 177 nM)

* * *

# measurement target: cAMP and cAMP-inhibited cGMP 3',5'-cyclic phosphodiesterase 10A (Homo sapiens)
# assay explanation: Inhibition of human recombinant GST-tagged PDE10A using [3H]-cAMP as substrate at 1 uM after 30 mins by scintillation proximity assay
assay readout: inhibition (%)

Cc1cnc2c(-c3ccc(Oc4ncccc4-c4ccncc4)cc3)cn(C)c2c1 ... 98.3
COc1ccc(-c2ccnc(Oc3cccc(-c4cn(C)c5cc6ccccc6nc45)c3)n2)cc1 ... 72.4
Cn1cc(-c2cccc(Oc3nccc(-c4ccc(F)cc4)n3)c2)c2nc3ccccc3cc21 ... 76.3
Cn1cc(-c2ccc(Oc3nccnc3-c3ccncc3)cc2)c2ncccc21 ... 98
COc1ccc(-c2nccnc2Oc2ccc(-c3cn(C)c4cc5ccccc5nc34)cc2)cc1 ... 72.3
Cn1cc(-c2ccc(Oc3nccnc3-c3ccncc3)cc2)c2ncc(Cl)cc21 ... 79.7
Cn1cc(C2CCC(Oc3nccnc3-c3cncnc3)CC2)c2ncccc21 (stereo not drawn) ... 68.9
Cn1cc(-c2cccc(Oc3nccc(N4CCOCC4)n3)c2)c2nc3ccccc3cc21 ... 93.1
Cn1cc(-c2ccc(Oc3nccc(-c4cncnc4)n3)cc2)c2nc3ccccc3cc21 ... 85.3
Cn1cc(-c2ccc(Oc3ncccc3-c3ccncc3)cc2)c2ncccc21 ... 98
Cn1cc(-c2ccc(Oc3nccnc3-c3cncnc3)cc2)c2nc3ccccc3cc21 ... 94.8
Cn1cc(-c2ccc(Oc3nccnc3-c3ccncc3)cc2)c2nc3ccccc3cc21 ... 97.2
Cn1cc(C2=CCC(Oc3nccnc3-c3cncnc3)CC2)c2ncccc21 (stereo not drawn) ... 78
Cn1cc(-c2cccc(Oc3nccnc3-c3cncnc3)c2)c2nc3ccccc3cc21 ... 76.3
Cn1cc(-c2cccc(Oc3nccc(-c4cn[nH]c4)n3)c2)c2nc3ccccc3cc21 ... 89.3
Cn1cc(-c2cccc(Oc3nccc(-c4cncnc4)n3)c2)c2nc3ccccc3cc21 ... 95
Cn1cc(-c2ccc(Oc3nccnc3-c3ccc(F)cc3)cc2)c2nc3ccccc3cc21 ... 76.9
Cn1cc(-c2ccc(Oc3ncccc3-c3ccncc3)cc2)c2ncc(Cl)cc21 ... 95.4
